# IC50 per entry
molecular target: human JAK3 catalytic kinase (JH1) domain (Homo sapiens (Human)); experiment: ADP-Glo Kinase Assay, recombinant JAK3 catalytic kinase (JH1) domain; type: biochemical; conditions: recombinant JH1 domain 0.3 nM, 4 μM ATP, JAK3-974 peptide, mean, read-out: JAK3 biochem IC50 (nM) Mean
Sequence (P52333 822-1111): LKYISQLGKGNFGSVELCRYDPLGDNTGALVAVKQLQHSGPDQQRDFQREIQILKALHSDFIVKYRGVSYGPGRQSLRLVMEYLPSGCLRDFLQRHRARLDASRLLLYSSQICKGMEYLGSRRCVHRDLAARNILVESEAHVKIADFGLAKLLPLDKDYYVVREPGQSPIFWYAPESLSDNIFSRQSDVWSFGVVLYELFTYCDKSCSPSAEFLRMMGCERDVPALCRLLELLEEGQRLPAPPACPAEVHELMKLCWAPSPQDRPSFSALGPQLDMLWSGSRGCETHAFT
Just the number in nM, nothing appended.

>>> value("Cc1cc(-c2nc3c(N4CC5CCC(C4)N5C(=O)[C@@H]4C[C@H]4F)ccnc3[nH]2)ccn1 [Example 202]")
199
>>> value("COc1cc(-c2cc3c(N4CC5CCC(C4)N5S(=O)(=O)C4CC4)ccnn3c2)ccn1 [Example 190]")
2750
>>> value("O=C([C@@H]1CC1(F)F)N1C2CCC1CN(c1ccnn3cc(-c4cnn(C(F)(F)F)c4)cc13)C2 [Example 19]")
518
>>> value("O=C([C@@H]1C[C@H]1F)N1C2CCC1CN(c1ccnc3[nH]c(C4CCOC4)nc13)C2 (stereo partly drawn) [Example 211]")
10000

Now take the following compound into account.
[in] Return IC50 measured with human JAK3 catalytic kinase (JH1) domain (Homo sapiens (Human)) given this compound: COc1nccc(-c2cc3c(N4CC5CCC(C4)N5C(=O)[C@@H]4C[C@H]4F)ccnc3[nH]2)c1F [Example 247]
[out] 168

----------
Biological target: human JAK1 catalytic kinase (JH1) domain (Homo sapiens (Human), UniProt P23458)
Sequence (P23458 875-1153): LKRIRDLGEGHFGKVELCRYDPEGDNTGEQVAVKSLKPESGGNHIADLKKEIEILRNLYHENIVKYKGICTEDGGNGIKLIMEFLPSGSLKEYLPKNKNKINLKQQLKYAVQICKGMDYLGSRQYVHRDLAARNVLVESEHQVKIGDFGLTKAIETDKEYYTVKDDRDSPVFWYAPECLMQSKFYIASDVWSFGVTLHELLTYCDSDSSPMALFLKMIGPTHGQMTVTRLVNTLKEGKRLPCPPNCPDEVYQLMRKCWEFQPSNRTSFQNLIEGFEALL
Test: ADP-Glo Kinase Assay, recombinant JAK1 catalytic kinase (JH1) domain
Format: biochemical
Conditions: recombinant JH1 domain 4 nM, 35 μM ATP, JAK3-342 peptide, mean, read-out: JAK1 biochem IC50 (nM) Mean
Experimental: Compounds of the disclosure were assessed for their ability to inhibit TYK2, JAK1, JAK2, and JAK3 activity. The inhibitory properties of the compounds of the disclosure described herein can be evidenced by testing in any one of the following protocols. The kinase activity of recombinantly generated catalytic kinase (also known as JH1) domain of human JAK1, JAK2, JAK3 and TYK2 were evaluated in a plate-based assay using the ADP-Glo™ Kinase Assay platform. […]
Outcome measure: IC50 (nM)
Just the number in nM, nothing appended.

[in] Return IC50 measured with human JAK1 catalytic kinase (JH1) domain (Homo sapiens (Human), UniProt P23458) given this compound: "O=C(C1CC1)N1C2CCC1CN(c1ncnn3cc(-c4ccnc(Cl)c4)cc13)C2"
[out] 4750

[in] Return IC50 measured with human JAK1 catalytic kinase (JH1) domain (Homo sapiens (Human), UniProt P23458) given this compound: O=C(C1C[C@H]1F)N1C2CCC1CN(c1ncnc3[nH]c(-c4cncc(F)c4)cc13)C2 (stereo partly shown)
[out] 1240

[in] Return IC50 measured with human JAK1 catalytic kinase (JH1) domain (Homo sapiens (Human), UniProt P23458) given this compound: "COc1nn(C)cc1-c1cc2c(N3CC4CCC(C3)N4C(=O)[C@@H]3C[C@H]3F)ccnn2c1"
[out] 114

[in] Return IC50 measured with human JAK1 catalytic kinase (JH1) domain (Homo sapiens (Human), UniProt P23458) given this compound: "CNc1cc(-c2cc3c(N4CC5CCC(C4)N5C(=O)[C@@H]4C[C@H]4F)ncnn3c2)ccn1"
[out] 230

----------
target: human TYK2 catalytic kinase (JH1) domain (Homo sapiens (Human), UniProt P29597); test: ADP-Glo Kinase Assay, recombinant TYK2 catalytic kinase (JH1) domain; type: biochemical; conditions: recombinant JH1 domain 2 nM, 10 μM ATP, JAK3-974 peptide, mean, read-out: TYK2 biochem IC50 (nM) Mean
Sequence (P29597 897-1176): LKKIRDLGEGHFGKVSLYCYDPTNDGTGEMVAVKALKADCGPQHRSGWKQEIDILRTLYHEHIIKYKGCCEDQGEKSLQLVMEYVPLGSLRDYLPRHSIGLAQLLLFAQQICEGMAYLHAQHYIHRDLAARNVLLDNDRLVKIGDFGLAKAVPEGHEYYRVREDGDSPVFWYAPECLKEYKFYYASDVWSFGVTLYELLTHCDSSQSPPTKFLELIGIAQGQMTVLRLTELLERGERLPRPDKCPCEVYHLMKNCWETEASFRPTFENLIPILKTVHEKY
# IC50 per entry
Just the number in nM, nothing appended.

Previously resolved entries follow.
>>> value("O=C(C1CC1)N1C2CCC1CN(c1ccnc3[nH]c(-c4cnn(C(F)F)c4)nc13)C2")
7.6
>>> value("O=C([C@@H]1C[C@H]1F)N1C2CCC1CN(c1ccnn3cc(-c4ccc(C(F)F)nc4)cc13)C2")
2.6

Now take the following compound into account.
[in] Any idea what its IC50 is? The compound is "O=C(C1CCC1)N1C2CCC1CN(c1ncnn3cc(-c4cnn(C(F)F)c4)cc13)C2"
[out] 407
